// Growth Rate lookup, one value per entry
test system: Fibroblast; assay: Incucyte cell viability with human fibroblast; assay type: toxicity, cell-based; settings: 12 h, 10 µM, compound concentration 10 uM, replicate number 1, timepoint 12 hours; further: filed as whole numbers so only -1 and 0 and 1 occur
Could you keep your reply to the number by itself?

[in] Name the recorded Growth Rate for O=C(Nc1cnc(Oc2ccc(F)cc2)nc1)N1CCc2ncccc2[C@@H]1c1ccc(F)cc1 [BAY-899] .
[out] 1

====

Each entry below carries its recorded Population Mitotic Cells (%).
test system: HEK-293T; test: Multiplex assay against HEK293T; type: toxicity, cell-based; details: human, 12 h, 1 µM, compound concentration 1 uM, replicate 2
# value in %; strip the unit string

Cc1nc(Nc2n[nH]c3c2CN(C(=O)N[C@H](CN(C)C)c2ccccc2)C3(C)C)c2sccc2n1 :: 91

[in] Entry `CNc1nc(NCc2ccc(NS(C)(=O)=O)cc2Cl)cc(-c2ccccn2)n1` : reported Population Mitotic Cells (%) = ?
[out] 85

[in] What does the data say about its Population Mitotic Cells (%)? Entry: `Cc1cc(C)cc(-c2cnc3cc(Cl)c(-c4cccc(O)c4)cc3c2OCCCN)c1`
[out] 68

[in] Please give the measured Population Mitotic Cells (%) for this compound: `CCN(CC)CCCCNc1ncc2cc(-c3cc(OC)cc(OC)c3)c(NC(=O)NC(C)(C)C)nc2n1`
[out] 93

[in] Given the entry CN1CCC[C@@H]1CCO[C@](C)(c1ccccc1)c1ccc(Cl)cc1.O=C(O)/C=C/C(=O)O [CLEMASTINE FUMARATE] , report its measured Population Mitotic Cells (%).
[out] 75

====

tested on: HEK-293T; assay: Multiplex assay against HEK293T; assay type: toxicity, cell-based; conditions: human, 12 h, 1 µM, compound concentration 1 uM, replicate 1
Parameter threshold = 10%. Response is rule met when Population Hoechst High Intensity Objects (%) meets or exceeds it, else rule not met.

Examples with answers:
CC[C@H](C)C(=O)O[C@H]1C[C@@H](C)C=C2C=C[C@H](C)[C@H](CC[C@@H]3C[C@@H](O)CC(=O)O3)[C@H]21 :: rule met
OC1(c2ccc(Cl)cc2)CCN(Cc2c[nH]c3ccccc23)CC1 :: rule met
C[C@@]1(C(=O)Nc2ccc(F)nc2)CCCN1c1nc(Nc2cc(C3CC3)n[nH]2)c2cccn2n1 :: rule met
Cl.N#Cc1ccc2[nH]cc(CCCCN3CCN(c4ccc5oc(C(N)=O)cc5c4)CC3)c2c1 [VILAZODONE HYDROCHLORIDE] :: rule not met

[in] Does Population Hoechst High Intensity Objects (%) meet or surpass 10% for `Cc1c(-c2ccc(O)cc2)n(Cc2ccc(OCCN3CCCCCC3)cc2)c2ccc(O)cc12` ?
[out] rule met

[in] Say whether `c1cn2cc(-c3ccc4cn[nH]c4c3)nc(Nc3ccc(N4CCOCC4)cc3)c2n1` shows Population Hoechst High Intensity Objects (%) of 10% or more.
[out] rule met

====

test system: U2OS; experiment: Multiplex assay against U2OS; format: toxicity, cell-based; conditions: human, 12 h, 1 µM, compound concentration 1 uM, replicate 2
Reported Population Membrane Permeable-Phenotype (%) is given for each of the following compounds.
Write your answer as a measured quantity: the number, then the unit.

Study these solved cases before continuing.
Cn1cc(-c2[nH]c3cc(NC(=O)[C@H](N)C4CCCCC4)cc4c3c2C=NNC4=O)cn1 :: 4%
CN1CCN(CCOc2cc(OC3CCOCC3)c3c(Nc4c(Cl)ccc5c4OCO5)ncnc3c2)CC1 [SARACATINIB] :: 0%
C=CC(=O)Nc1cc2c(Nc3ccc(F)c(Cl)c3)ncnc2cc1OCCCN1CCOCC1.Cl.Cl [CANERTINIB DIHYDROCHLORIDE] :: 100%
Cc1cc(C)cc(-c2cnc3cc(Cl)c(-c4cccc(O)c4)cc3c2OCCCN)c1 :: 2%
CN1CCCC(n2nc(Cc3ccc(Cl)cc3)c3ccccc3c2=O)CC1.Cl (stereo not drawn) [AZELASTINE HYDROCHLORIDE] :: 7%

[in] Would you kindly share the measured Population Membrane Permeable-Phenotype (%) for `CC(C)(O)CNc1ncc(-c2ccnc(Nc3ccnc(Cl)c3)n2)c(CC2CC2)n1` ?
[out] 5%

[in] Need Population Membrane Permeable-Phenotype (%) of C[C@@H](NCCCc1cccc(C(F)(F)F)c1)c1cccc2ccccc12.Cl [CINACALCET HYDROCHLORIDE] , thanks.
[out] 11%

[in] Give the measured Population Membrane Permeable-Phenotype (%) of O=C1NCN(c2ccccc2)C12CCN(CCCOc1ccc(F)cc1)CC2 [SPIRAMIDE] .
[out] 0%

====

# Growth Rate per entry
test system: U2OS; assay: Incucyte cell viability with U2OS; assay type: toxicity, cell-based; details: human, 18 h, 10 µM, compound concentration 10 uM, replicate number 1, timepoint 18 hours; further: filed as whole numbers so only -1 and 0 and 1 occur
Please reply with the value in numeric form only.

Below, each entry is followed by its recorded Growth Rate result.
CS(=O)(=O)NC[C@H]1CC[C@H](Nc2nc3c(s2)CCSc2ccccc2-3)CC1 :: 0
Cn1cnc2c(F)c(Nc3ccc(Br)cc3Cl)c(C(=O)NOCCO)cc21 :: 0
CC(C)(O)CNc1ncc(-c2ccnc(Nc3ccnc(Cl)c3)n2)c(CC2CC2)n1 :: 0
NC(=O)Nc1cc(-c2cccc(F)c2)sc1C(=O)N[C@H]1CCCNC1 :: 0
O=C(NCCN1CCOCC1)c1ccc2c(c1)C(=O)c1ccc(Nc3ccc(F)c(NC(=O)c4ccccc4)c3)cc1CC2 :: 0
CN1CCCC(n2nc(Cc3ccc(Cl)cc3)c3ccccc3c2=O)CC1.Cl (stereo unspecified) [AZELASTINE HYDROCHLORIDE] :: 1
C[C@@]1(Cc2ccc(C#N)cc2)C(=O)N(c2cc(Cl)cc(Cl)c2)c2ncc(C(=O)NC3(c4nc(C5CCC5)no4)CC3)n21 :: 1
NC(=O)c1ccc(NC(=O)NCc2cccc(C(=O)Nc3ccc4c(c3)CNCC4)c2)cc1 :: 1
Cc1cccc([C@H](C)c2c[nH]cn2)c1C.Cl [DEXMEDETOMIDINE HYDROCHLORIDE] :: 0
Cc1csc2c(N[C@@H](C)CN3CCN(S(=O)(=O)c4ccc(Cl)c(Cl)c4)CC3)ncnc12 :: 0

[in] Hi! What's the reported Growth Rate for `Cc1cccc(-c2cnc3occ(-c4ccc(C(=O)O)c(C5CCCC5)c4)c3c2)c1` on U2OS?
[out] 0

[in] Could you share what Growth Rate was measured for `O=C(O)C[C@H]1CCc2c1[nH]c1ccc(OCc3ccc(C4CCCC4)c(C(F)(F)F)c3)cc21` , tested on U2OS?
[out] 1

[in] # returns recorded Growth Rate (system: U2OS) for `O=C(NCc1ncc(C(F)(F)F)cc1Cl)c1ccc2c(c1)C1(CCS(=O)(=O)CC1)[C@H](C1CC1)N2S(=O)(=O)c1ccc(F)cc1`
[out] 0

[in] Reported Growth Rate for U2OS, given `Cc1cc(Nc2nccc(C)n2)cc(-c2cnc([C@@]3(O)CC[C@H](C(=O)O)C(C)(C)C3)s2)c1` ?
[out] 0

[in] Given the entry C=CC(=O)Nc1cc2c(Nc3ccc(F)c(Cl)c3)ncnc2cc1OCCCN1CCOCC1.Cl.Cl [CANERTINIB DIHYDROCHLORIDE] , what Growth Rate was observed with U2OS?
[out] 0

[in] Growth Rate of `Cn1cncc1[C@@](O)(COc1ccc(C#N)cc1-c1ccc(OC(F)(F)F)cc1)c1ccc(C#N)cc1` on U2OS?
[out] 0

====

system: Fibroblast; assay: Multiplex assay against human fibroblast; assay type: toxicity, cell-based; details: 48 h, 1 µM, compound concentration 1 uM, replicate 2
// bucketize Population Normal (%): low (below 80%), intermediate (80% to below 90%), high (90% or more)

CN1CCN(CCOc2cc(OC3CCOCC3)c3c(Nc4c(Cl)ccc5c4OCO5)ncnc3c2)CC1 [SARACATINIB] :: low
O=C1NCN(c2ccccc2)C12CCN(CCCOc1ccc(F)cc1)CC2 [SPIRAMIDE] :: high
Cc1nc(-c2ccc(-c3ccc(C(=O)N4CCc5cc6c(cc54)C4(CCN(C)CC4)CO6)cc3)c(C)c2)no1 [SB-224289] :: low
Cc1c(-c2ccc(O)cc2)n(Cc2ccc(OCCN3CCCCCC3)cc2)c2ccc(O)cc12 [BAZEDOXIFENE] :: intermediate
Cl.N#Cc1ccc2[nH]cc(CCCCN3CCN(c4ccc5oc(C(N)=O)cc5c4)CC3)c2c1 [VILAZODONE HYDROCHLORIDE] :: intermediate

Please examine the following record next.
[in] Band for the recorded Population Normal (%) of `C=CC(=O)Nc1ccc2ncnc(Nc3ccc(OCc4cccc(F)c4)c(Cl)c3)c2c1.Cc1ccc(S(=O)(=O)O)cc1` ?
[out] intermediate

====

test system: U2OS; experiment: Multiplex assay against U2OS; assay type: toxicity, cell-based; conditions: human, 12 h, 10 µM, compound concentration 10 uM, replicate 1
assay-readout: Population Hoechst High Intensity Objects (%)
Give just the numeric value; % need not be written.

Solved cases (3 shown):
CN1CCCC(n2nc(Cc3ccc(Cl)cc3)c3ccccc3c2=O)CC1.Cl (centres undefined) [AZELASTINE HYDROCHLORIDE] :: 12
CN1CCC[C@@H]1CCO[C@](C)(c1ccccc1)c1ccc(Cl)cc1.O=C(O)/C=C/C(=O)O [CLEMASTINE FUMARATE] :: 18
Cl.N#Cc1ccc2[nH]cc(CCCCN3CCN(c4ccc5oc(C(N)=O)cc5c4)CC3)c2c1 [VILAZODONE HYDROCHLORIDE] :: 18

Now consider a different compound.
[in] Please report the recorded Population Hoechst High Intensity Objects (%) for CN(C)C(=O)N[C@H]1CC[C@H](CCN2CCN(c3cccc(Cl)c3Cl)CC2)CC1.Cl [CARIPRAZINE HYDROCHLORIDE] .
[out] 8
